target: UniProt:Q9UPE1; test: radiometric filter-binding kinase assay, Kinase HotSpot; conditions: compound 0.5 µM; ATP 10 µM
Sequence (Q9UPE1 whole entry, looked up): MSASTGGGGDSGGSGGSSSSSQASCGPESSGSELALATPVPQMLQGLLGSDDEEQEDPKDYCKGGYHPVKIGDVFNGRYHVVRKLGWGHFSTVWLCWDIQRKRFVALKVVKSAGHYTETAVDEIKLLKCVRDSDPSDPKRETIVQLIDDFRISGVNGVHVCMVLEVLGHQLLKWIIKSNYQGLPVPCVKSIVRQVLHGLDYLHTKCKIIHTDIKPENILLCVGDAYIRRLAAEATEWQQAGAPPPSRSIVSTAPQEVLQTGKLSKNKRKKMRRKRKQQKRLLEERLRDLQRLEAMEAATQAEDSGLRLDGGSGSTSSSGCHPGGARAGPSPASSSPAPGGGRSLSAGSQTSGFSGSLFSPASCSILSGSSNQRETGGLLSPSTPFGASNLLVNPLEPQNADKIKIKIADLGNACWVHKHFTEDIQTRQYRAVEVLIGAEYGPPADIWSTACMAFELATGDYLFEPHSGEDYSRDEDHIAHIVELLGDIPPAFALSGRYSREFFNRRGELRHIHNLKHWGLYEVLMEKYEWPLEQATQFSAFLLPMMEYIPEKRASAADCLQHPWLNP
Value type: residual activity

• Oc1ccc(Nc2nc(-c3ccc(Cl)cc3)cs2)cc1 = 98.1%
• Nc1nnc2[nH]c3ccccc3nc1-2 = 95.6%
• Nc1nccc(-c2c(-c3ccc(F)cc3)ncn2C2CCNCC2)n1 = 99.3%
• O=C1Nc2ccccc2/C1=C1\Nc2ccccc2\C1=N/O = 97.5%
• O=C1Cc2c([nH]c3ccc(Br)cc23)-c2ccccc2N1 = 100%

* * *

molecular target: CLK3 (human) (UniProt P49761); experiment: radiometric filter-binding kinase assay, Kinase HotSpot; details: compound 0.5 µM; ATP 10 µM
Sequence (P49761 whole entry, looked up): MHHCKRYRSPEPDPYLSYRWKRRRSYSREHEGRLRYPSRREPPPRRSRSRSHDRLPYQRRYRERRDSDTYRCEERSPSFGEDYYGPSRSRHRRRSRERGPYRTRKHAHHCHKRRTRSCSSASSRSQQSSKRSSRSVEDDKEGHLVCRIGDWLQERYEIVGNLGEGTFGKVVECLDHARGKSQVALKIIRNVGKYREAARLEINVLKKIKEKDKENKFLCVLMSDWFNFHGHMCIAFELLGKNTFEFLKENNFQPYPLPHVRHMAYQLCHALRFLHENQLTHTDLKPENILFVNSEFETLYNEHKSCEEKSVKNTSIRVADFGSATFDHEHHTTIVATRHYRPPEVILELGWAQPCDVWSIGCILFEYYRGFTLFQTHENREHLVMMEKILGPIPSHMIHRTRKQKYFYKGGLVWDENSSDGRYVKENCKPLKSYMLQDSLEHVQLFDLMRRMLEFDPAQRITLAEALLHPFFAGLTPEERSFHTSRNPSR
Value type: residual activity

* O=C1NC(=O)/C(=C\c2ccc3nccnc3c2)S1 | 80.8%
* O=C1Cc2c([nH]c3ccc(Br)cc23)-c2ccccc2N1 | 99.3%
* Cc1nc2cc3nc(-c4cccs4)cnc3cc2n1C | 114%
* Nc1nnc2[nH]c3ccccc3nc1-2 | 94.3%
* CC(C)c1nn(-c2c(Cl)cccc2Cl)c2nc(Cc3ccc(OCCO)cc3)nc(O)c12 | 91.3%
* O=C(O)/C=C/c1cc(Br)c(Br)c(Br)c1Br | 96.1%
* Cn1nc2c3c(cccc31)C(=O)c1ccccc1-2 | 98.5%
* CCn1cnc2c(Nc3cccc(Cl)c3)nc(N[C@@H]3CCCC[C@@H]3N)nc21 | 99.8%
* O=C1Nc2ccccc2/C1=C1\Nc2ccccc2\C1=N/O | 48.2%
* CN(C)C[C@H]1CCn2c(c(C3=C(c4cn(C)c5ccccc45)C(=O)NC3=O)c3ccccc32)C1 | 94.7%
* COc1ccc(CNC(=O)Nc2ncc([N+](=O)[O-])s2)cc1 | 93%
* O=C1NC(=O)C(c2c[nH]c3ccccc23)=C1c1c[nH]c2ccccc12 | 102%
* Cn1cnc2cc3c(Nc4cccc(Br)c4)ncnc3cc21 | 100%
* Cn1sc(=O)n(Cc2ccccc2)c1=O | 83%
* CN([C@@H](Cc1ccc(OS(=O)(=O)c2cccc3cnccc23)cc1)C(=O)N1CCN(c2ccccc2)CC1)S(=O)(=O)c1cccc2cnccc12 | 103%
* O=C1NC(=O)C(c2cn(CCCO)c3ncccc23)=C1c1cnccn1 | 67.8%
* O=C(Nc1cccc(Nc2cc(Nc3cccc(C(F)(F)F)c3)ncn2)c1)C1CC1 | 102%
* CC(C)[C@H](CO)Nc1nc(Nc2cc(N)cc(Cl)c2)c2ncn(C(C)C)c2n1 | 85.5%
* CC(=O)O/N=C1\C(=C2\C(=O)Nc3cc(Br)ccc32)Nc2ccccc21 | 75.1%
* Nc1nccc(-c2c(-c3ccc(F)cc3)ncn2C2CCNCC2)n1 | 102%
* COc1cc2ncc(-c3ccccc3)nc2cc1OC | 90.1%
* O=C1Nc2ccccc2/C1=C1/Nc2ccccc2/C1=N\OCCC(O)CO (stereo not drawn) | 16.1%
* CCN(CC)CCCCN1c2ccccc2Oc2ccc(Cl)cc21 | 104%

* * *

biological target: MYO3B (human) (UniProt Q8WXR4); assay: radiometric filter-binding kinase assay, Kinase HotSpot; conditions: compound 0.5 µM; ATP 10 µM
Sequence (Q8WXR4 whole entry, looked up): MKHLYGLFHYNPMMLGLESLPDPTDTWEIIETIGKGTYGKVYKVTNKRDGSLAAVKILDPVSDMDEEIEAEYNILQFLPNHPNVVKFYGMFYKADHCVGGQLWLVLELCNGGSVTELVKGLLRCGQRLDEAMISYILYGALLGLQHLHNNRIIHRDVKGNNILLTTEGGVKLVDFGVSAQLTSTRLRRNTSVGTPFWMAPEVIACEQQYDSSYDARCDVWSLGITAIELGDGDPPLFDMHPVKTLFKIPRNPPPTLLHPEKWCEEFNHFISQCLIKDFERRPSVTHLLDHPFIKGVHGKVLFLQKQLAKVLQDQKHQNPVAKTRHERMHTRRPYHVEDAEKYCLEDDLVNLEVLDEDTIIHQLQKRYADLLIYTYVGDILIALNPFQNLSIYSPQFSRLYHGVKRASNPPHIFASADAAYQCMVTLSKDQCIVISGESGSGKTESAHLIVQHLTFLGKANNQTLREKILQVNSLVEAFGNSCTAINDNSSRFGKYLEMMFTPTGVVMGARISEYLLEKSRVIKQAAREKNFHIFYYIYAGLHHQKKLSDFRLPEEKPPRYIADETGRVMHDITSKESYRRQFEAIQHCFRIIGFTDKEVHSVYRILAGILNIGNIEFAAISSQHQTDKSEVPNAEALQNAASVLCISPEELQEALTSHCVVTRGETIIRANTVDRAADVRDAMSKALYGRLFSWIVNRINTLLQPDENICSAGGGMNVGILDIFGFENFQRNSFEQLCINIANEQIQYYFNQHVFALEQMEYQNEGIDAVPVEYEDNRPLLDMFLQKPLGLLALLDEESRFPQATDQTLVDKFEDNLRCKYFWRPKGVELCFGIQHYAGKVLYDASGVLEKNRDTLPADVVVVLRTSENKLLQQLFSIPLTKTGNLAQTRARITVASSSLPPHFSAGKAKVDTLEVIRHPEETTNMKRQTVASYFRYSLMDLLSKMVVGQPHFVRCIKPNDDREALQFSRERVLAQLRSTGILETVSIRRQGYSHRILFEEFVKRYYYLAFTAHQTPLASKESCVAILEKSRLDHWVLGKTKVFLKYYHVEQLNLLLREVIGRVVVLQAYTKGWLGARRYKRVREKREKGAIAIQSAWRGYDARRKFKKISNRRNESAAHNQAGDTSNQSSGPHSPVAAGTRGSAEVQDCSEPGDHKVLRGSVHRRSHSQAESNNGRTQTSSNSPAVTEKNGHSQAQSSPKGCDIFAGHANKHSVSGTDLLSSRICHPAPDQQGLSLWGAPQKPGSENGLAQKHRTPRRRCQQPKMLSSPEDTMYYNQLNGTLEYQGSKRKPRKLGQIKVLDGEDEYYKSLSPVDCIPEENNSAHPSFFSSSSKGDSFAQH
Value type: residual activity (%)

- O=C1NC(=O)/C(=C\c2ccc3nccnc3c2)S1: 83.8
- O=C(CCCc1ccc(-c2ccccc2F)cc1)Nc1ccc(O)cc1: 96.3
- Cn1nc2c3c(cccc31)C(=O)c1ccccc1-2: 97.7
- CN([C@@H](Cc1ccc(OS(=O)(=O)c2cccc3cnccc23)cc1)C(=O)N1CCN(c2ccccc2)CC1)S(=O)(=O)c1cccc2cnccc12: 88.5
- O=C1Cc2c([nH]c3ccc(Br)cc23)-c2ccccc2N1: 97.4
- Oc1ccc(Nc2nc(-c3ccc(Cl)cc3)cs2)cc1: 98.7
- Nc1nccc(-c2c(-c3ccc(F)cc3)ncn2C2CCNCC2)n1: 97.9
- COc1cc2ncc(-c3ccccc3)nc2cc1OC: 84.6
- CN(C)C[C@H]1CCn2c(c(C3=C(c4cn(C)c5ccccc45)C(=O)NC3=O)c3ccccc32)C1: 87.9
- COc1cc2ncnc(N3CCN(C(=O)Nc4ccc(Oc5ccccc5)cc4)CC3)c2cc1OC: 95.4

* * *

biological target: ROCK1 (human); assay: radiometric filter-binding kinase assay, Kinase HotSpot; details: compound 0.5 µM; ATP 10 µM
# Lookup of reported residual activity keyed by entry
Value type: residual activity (%)

* Nc1nccc(-c2c(-c3ccc(F)cc3)ncn2C2CCNCC2)n1 | 103
* O=C1NC(=O)C(c2c[nH]c3ccccc23)=C1c1c[nH]c2ccccc12 | 97.4
* O=C1Nc2ccccc2/C1=C1\Nc2ccccc2\C1=N/O | 101
* O=C(O)/C=C/c1cc(Br)c(Br)c(Br)c1Br | 97.6
* CN([C@@H](Cc1ccc(OS(=O)(=O)c2cccc3cnccc23)cc1)C(=O)N1CCN(c2ccccc2)CC1)S(=O)(=O)c1cccc2cnccc12 | 97.9
* COc1ccc(CNC(=O)Nc2ncc([N+](=O)[O-])s2)cc1 | 102
* Cn1nc2c3c(cccc31)C(=O)c1ccccc1-2 | 98.4
* CC(C)[C@H](CO)Nc1nc(Nc2cc(N)cc(Cl)c2)c2ncn(C(C)C)c2n1 | 90
* O=C(Nc1cccc(Nc2cc(Nc3cccc(C(F)(F)F)c3)ncn2)c1)C1CC1 | 98.7
* Nc1nnc2[nH]c3ccccc3nc1-2 | 99

* * *

target: PRKCA (human) (UniProt P17252); test: radiometric filter-binding kinase assay, Kinase HotSpot; conditions: compound 0.5 µM; ATP 10 µM
In plain terms, low residual activity, meaning strictly below 90%, gives YES, and everything else gives NO.

• CC(=O)O/N=C1\C(=C2\C(=O)Nc3cc(Br)ccc32)Nc2ccccc21 = NO
• CC(C)[C@H](CO)Nc1nc(Nc2cc(N)cc(Cl)c2)c2ncn(C(C)C)c2n1 = YES
• COc1ccc(OC)c2c(=S)c3ccccc3[nH]c12 = NO
• O=C(Nc1cccc(Nc2cc(Nc3cccc(C(F)(F)F)c3)ncn2)c1)C1CC1 = NO
• Nc1nnc2[nH]c3ccccc3nc1-2 = YES
• O=C1Nc2ccccc2/C1=C1\Nc2ccccc2\C1=N/O = NO
• Cn1sc(=O)n(Cc2ccccc2)c1=O = YES
• COc1ccc(CNC(=O)Nc2ncc([N+](=O)[O-])s2)cc1 = YES
• O=C1Cc2c([nH]c3ccc(Br)cc23)-c2ccccc2N1 = NO
• COc1cc2ncnc(N3CCN(C(=O)Nc4ccc(Oc5ccccc5)cc4)CC3)c2cc1OC = NO
• O=C(O)/C=C/c1cc(Br)c(Br)c(Br)c1Br = YES
• CCN(CC)CCCCN1c2ccccc2Oc2ccc(Cl)cc21 = YES
• Cn1nc2c3c(cccc31)C(=O)c1ccccc1-2 = NO
• Cc1nc2cc3nc(-c4cccs4)cnc3cc2n1C = YES
• O=C1Nc2ccccc2/C1=C1/Nc2ccccc2/C1=N\OCCC(O)CO (stereo not drawn) = NO
• O=C(CCCc1ccc(-c2ccccc2F)cc1)Nc1ccc(O)cc1 = NO
• O=C1NC(=O)C(c2c[nH]c3ccccc23)=C1c1c[nH]c2ccccc12 = YES
• CN([C@@H](Cc1ccc(OS(=O)(=O)c2cccc3cnccc23)cc1)C(=O)N1CCN(c2ccccc2)CC1)S(=O)(=O)c1cccc2cnccc12 = NO
• O=C1NC(=O)/C(=C\c2ccc3nccnc3c2)S1 = NO
• COc1cc2ncc(-c3ccccc3)nc2cc1OC = NO

* * *

Listing: residual activity of selected molecules
molecular target: UniProtKB Q13627; assay: radiometric filter-binding kinase assay, Kinase HotSpot; conditions: compound 0.5 µM; ATP 10 µM
Value type: residual activity (%)

• CN([C@@H](Cc1ccc(OS(=O)(=O)c2cccc3cnccc23)cc1)C(=O)N1CCN(c2ccccc2)CC1)S(=O)(=O)c1cccc2cnccc12 = 102
• CC(C)[C@H](CO)Nc1nc(Nc2cc(N)cc(Cl)c2)c2ncn(C(C)C)c2n1 = 57.1
• O=C1Nc2ccccc2/C1=C1\Nc2ccccc2\C1=N/O = 105
• O=C1Cc2c([nH]c3ccc(Br)cc23)-c2ccccc2N1 = 98.8
• COc1ccc(OC)c2c(=S)c3ccccc3[nH]c12 = 103
• Oc1ccc(Nc2nc(-c3ccc(Cl)cc3)cs2)cc1 = 96.6
• CC(C)c1nn(-c2c(Cl)cccc2Cl)c2nc(Cc3ccc(OCCO)cc3)nc(O)c12 = 105
• O=C(O)/C=C/c1cc(Br)c(Br)c(Br)c1Br = 74.8
• O=C(CCCc1ccc(-c2ccccc2F)cc1)Nc1ccc(O)cc1 = 106
• COc1ccc(CNC(=O)Nc2ncc([N+](=O)[O-])s2)cc1 = 95.6
• CCn1cnc2c(Nc3cccc(Cl)c3)nc(N[C@@H]3CCCC[C@@H]3N)nc21 = 100
• O=C1NC(=O)C(c2c[nH]c3ccccc23)=C1c1c[nH]c2ccccc12 = 80.8
• Cn1cnc2cc3c(Nc4cccc(Br)c4)ncnc3cc21 = 106
• O=C1Nc2ccccc2/C1=C1/Nc2ccccc2/C1=N\OCCC(O)CO (configuration not stated) = 82.8
• CCN(CC)CCCCN1c2ccccc2Oc2ccc(Cl)cc21 = 104
• Cn1sc(=O)n(Cc2ccccc2)c1=O = 92.6
• Nc1nccc(-c2c(-c3ccc(F)cc3)ncn2C2CCNCC2)n1 = 96.3
• Cc1nc2cc3nc(-c4cccs4)cnc3cc2n1C = 99.9
• CN(C)C[C@H]1CCn2c(c(C3=C(c4cn(C)c5ccccc45)C(=O)NC3=O)c3ccccc32)C1 = 88.7
• CC(=O)O/N=C1\C(=C2\C(=O)Nc3cc(Br)ccc32)Nc2ccccc21 = 111
• COc1cc2ncnc(N3CCN(C(=O)Nc4ccc(Oc5ccccc5)cc4)CC3)c2cc1OC = 97.9
• Cn1nc2c3c(cccc31)C(=O)c1ccccc1-2 = 94.1
